# system: hSTING-WT (Homo sapiens, UniProt Q86WV6, H232R)
# Construct: purchased Cisbio
# Sequence (Q86WV6 whole entry H232R): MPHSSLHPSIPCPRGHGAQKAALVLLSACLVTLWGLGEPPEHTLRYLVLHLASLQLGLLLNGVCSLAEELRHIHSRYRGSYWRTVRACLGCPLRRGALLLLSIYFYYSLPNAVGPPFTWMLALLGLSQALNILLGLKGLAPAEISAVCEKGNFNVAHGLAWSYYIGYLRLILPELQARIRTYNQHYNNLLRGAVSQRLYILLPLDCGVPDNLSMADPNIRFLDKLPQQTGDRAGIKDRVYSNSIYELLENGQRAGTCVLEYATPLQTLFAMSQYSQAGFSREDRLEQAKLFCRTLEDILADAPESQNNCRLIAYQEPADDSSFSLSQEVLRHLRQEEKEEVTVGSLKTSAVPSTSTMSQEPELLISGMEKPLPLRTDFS
# protocol summary: HTRF STING competition binding (cGAMP displacement) assay, hSTING-WT
# reported conditions: concentrations up to 100 μM
observable: binding to hSTING-WT in displacement assay, in words

- compound: "COc1cc2c(=O)c3cccc(C(=O)O)c3[nH]c2c(C)c1C [Compound 33]"
  data value: "inactive"
- compound: "CCOC(=O)Cn1c2ccccc2c(=O)c2cc(OC)c(C)c(C)c21 [Compound 10]"
  data value: "cannot bind to STING"
- compound: "COc1cc(C(=O)O)c2[nH]c3c(C)c(C)c(OC)cc3c(=O)c2c1 [Compound 34]"
  data value: "inactive"
- compound: "COc1cc2c(=O)c3ccccc3[nH]c2c(C)c1C [Compound 9, 2-methoxy-3,4-dimethylacridin-9(10H)-one]"
  data value: "cannot bind to STING"

---

# system: mSTING (Mus musculus)
# protocol summary: Cellular assay for STING inhibitory activity, 293T mSTING cells stimulated with 2′,3′-cGAMP (SEAP)
# reported conditions: compound at 100 μM
observable: inhibitory potency in murine STING reporter cells, initial screen

- record smiles: "COc1cc2c(=O)c3cccc4c3n(c2c(C)c1C)C(=O)C4"
  data value: "not being as effective"
- record smiles: "COc1cc2c(=O)c3c(F)ccc4c3n(c2c(C)c1C)C(=O)C4"
  data value: "excellent inhibition"
- record smiles: "COc1cc2c(=O)c3cccc(CC(=O)O)c3[nH]c2c(C)c1C"
  data value: "not being as effective"
- record smiles: "COc1cc2c(=O)c3ccccc3n(CC(=O)O)c2c(C)c1C"
  data value: "excellent inhibition"

---

# system: hSTING-H232 (Homo sapiens, UniProt Q86WV6)
# Sequence (Q86WV6 135-379 limits assumed): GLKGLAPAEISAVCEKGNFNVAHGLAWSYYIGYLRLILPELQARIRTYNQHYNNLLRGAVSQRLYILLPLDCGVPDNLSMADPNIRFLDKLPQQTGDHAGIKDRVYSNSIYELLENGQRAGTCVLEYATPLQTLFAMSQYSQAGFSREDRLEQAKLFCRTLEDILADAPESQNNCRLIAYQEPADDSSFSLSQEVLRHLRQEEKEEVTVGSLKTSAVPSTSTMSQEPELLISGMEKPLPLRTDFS
IC50 under 40 µM gets true (1), anything at or over 40 µM gets false (0).

- molecule: "CCOC(=O)Cn1c2ccccc2c(=O)c2cc(OC)c(C)c(C)c21"
  group: "false (0)"
- molecule: "COc1cc2c(=O)c3c(F)ccc(CC(=O)O)c3[nH]c2c(C)c1C"
  group: "false (0)"
- molecule: "COc1cc(C(=O)O)c2[nH]c3c(C)c(C)c(OC)cc3c(=O)c2c1"
  group: "false (0)"
- molecule: "COc1cc2c(=O)c3cc(Cl)cc4c3n(c2c(C)c1C)C(=O)C4"
  group: "false (0)"
- molecule: "COc1cc2c(=O)c3cc(F)cc(CC(=O)O)c3[nH]c2c(C)c1C"
  group: "false (0)"
- molecule: "COc1cc2c(=O)c3cccc(C(=O)O)c3[nH]c2c(C)c1C"
  group: "false (0)"
- molecule: "COc1cc2c(=O)c3cc(Cl)cc(CC(=O)O)c3[nH]c2c(C)c1C"
  group: "false (0)"
- molecule: "COc1cc2c(=O)c3ccccc3[nH]c2c(C)c1C [Compound 9, 2-methoxy-3,4-dimethylacridin-9(10H)-one]"
  group: "false (0)"
- molecule: "COc1cc2c(=O)c3c(Cl)ccc(CC(=O)O)c3[nH]c2c(C)c1C"
  group: "false (0)"
- molecule: "COc1cc2c(=O)c3c(F)ccc4c3n(c2c(C)c1C)C(=O)C4"
  group: "true (1)"
- molecule: "COc1cc2c(=O)c3c(Cl)ccc4c3n(c2c(C)c1C)C(=O)C4"
  group: "true (1)"
- molecule: "COc1cc2c(=O)c3cc(F)cc4c3n(c2c(C)c1C)C(=O)C4"
  group: "false (0)"
- molecule: "COc1cc2c(=O)c3cccc(CC(=O)O)c3[nH]c2c(C)c1C"
  group: "false (0)"
- molecule: "COc1cc2c3c(c1)c(=O)c1cc(OC)c(C)c(C)c1n3C(=O)C2"
  group: "false (0)"
- molecule: "COc1cc2c(=O)c3cccc4c3n(c2c(C)c1C)C(=O)C4"
  group: "true (1)"

---

# system: UniProt Q3TBT3
# Sequence (Q3TBT3 1-378): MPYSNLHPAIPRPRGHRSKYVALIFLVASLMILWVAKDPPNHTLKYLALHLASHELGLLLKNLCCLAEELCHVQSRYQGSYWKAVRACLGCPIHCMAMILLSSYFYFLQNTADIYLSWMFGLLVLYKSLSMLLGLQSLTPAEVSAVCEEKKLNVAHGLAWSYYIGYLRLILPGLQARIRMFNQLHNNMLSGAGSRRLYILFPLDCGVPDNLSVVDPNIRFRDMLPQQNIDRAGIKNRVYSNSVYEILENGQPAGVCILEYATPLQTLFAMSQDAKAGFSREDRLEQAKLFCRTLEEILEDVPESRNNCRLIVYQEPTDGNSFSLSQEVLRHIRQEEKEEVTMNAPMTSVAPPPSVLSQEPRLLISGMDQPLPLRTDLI
# protocol summary: HTRF STING competition binding (cGAMP displacement) assay, mSTING
# Parameters: purchased Cisbio
# reported conditions: HTRF displacement assay, means from at least three repeated experiments
A collection of molecules and their measured IC50
observable: IC50 (µM)

- molecule: "COc1cc2c(=O)c3cc(Cl)cc(CC(=O)O)c3[nH]c2c(C)c1C [Compound 38]"
  observable: "IC50"
  relation qualifier: ">"
  data value: 100
- molecule: "COc1cc2c(=O)c3c(Cl)ccc4c3n(c2c(C)c1C)C(=O)C4 [Compound 25]"
  observable: "IC50"
  relation qualifier: "="
  data value: 32.4
- molecule: "COc1cc2c(=O)c3cc(F)cc(CC(=O)O)c3[nH]c2c(C)c1C [Compound 37]"
  observable: "IC50"
  relation qualifier: ">"
  data value: 100
- molecule: "COc1cc2c(=O)c3c(F)ccc(CC(=O)O)c3[nH]c2c(C)c1C [Compound 35]"
  observable: "IC50"
  relation qualifier: ">"
  data value: 100
- molecule: "CCOC(=O)Cn1c2ccccc2c(=O)c2cc(OC)c(C)c(C)c21 [Compound 10]"
  observable: "IC50"
  relation qualifier: ">"
  data value: 100
- molecule: "COc1cc2c(=O)c3c(F)ccc4c3n(c2c(C)c1C)C(=O)C4 [Compound 27]"
  observable: "IC50"
  relation qualifier: "="
  data value: 3.88
- molecule: "COc1cc2c(=O)c3cccc(C(=O)O)c3[nH]c2c(C)c1C [Compound 33]"
  observable: "IC50"
  relation qualifier: ">"
  data value: 100
- molecule: "COc1cc2c3c(c1)c(=O)c1cc(OC)c(C)c(C)c1n3C(=O)C2 [Compound 29]"
  observable: "IC50"
  relation qualifier: ">"
  data value: 100
- molecule: "COc1cc2c(=O)c3cccc4c3n(c2c(C)c1C)C(=O)C4 [Compound 3]"
  observable: "IC50"
  relation qualifier: "="
  data value: 33.3
- molecule: "COc1cc2c(=O)c3cccc(CC(=O)O)c3[nH]c2c(C)c1C [Compound 4]"
  observable: "IC50"
  relation qualifier: "="
  data value: 28.2
- molecule: "COc1cc(C(=O)O)c2[nH]c3c(C)c(C)c(OC)cc3c(=O)c2c1 [Compound 34]"
  observable: "IC50"
  relation qualifier: ">"
  data value: 100
- molecule: "COc1cc2c(=O)c3c(Cl)ccc(CC(=O)O)c3[nH]c2c(C)c1C [Compound 36]"
  observable: "IC50"
  relation qualifier: ">"
  data value: 100
- molecule: "COc1cc2c(=O)c3ccccc3[nH]c2c(C)c1C [Compound 9, 2-methoxy-3,4-dimethylacridin-9(10H)-one]"
  observable: "IC50"
  relation qualifier: ">"
  data value: 100
- molecule: "COc1cc2c(=O)c3cc(F)cc4c3n(c2c(C)c1C)C(=O)C4 [Compound 28]"
  observable: "IC50"
  relation qualifier: "="
  data value: 61
- molecule: "COc1cc2c(=O)c3cc(Cl)cc4c3n(c2c(C)c1C)C(=O)C4 [Compound 26]"
  observable: "IC50"
  relation qualifier: "="
  data value: 51.5

---

# system: hSTING-AQ (Homo sapiens, UniProt Q86WV6, G230A/R293Q)
# Construct: purchased Cisbio
# Sequence (Q86WV6 whole entry G230A/R293Q): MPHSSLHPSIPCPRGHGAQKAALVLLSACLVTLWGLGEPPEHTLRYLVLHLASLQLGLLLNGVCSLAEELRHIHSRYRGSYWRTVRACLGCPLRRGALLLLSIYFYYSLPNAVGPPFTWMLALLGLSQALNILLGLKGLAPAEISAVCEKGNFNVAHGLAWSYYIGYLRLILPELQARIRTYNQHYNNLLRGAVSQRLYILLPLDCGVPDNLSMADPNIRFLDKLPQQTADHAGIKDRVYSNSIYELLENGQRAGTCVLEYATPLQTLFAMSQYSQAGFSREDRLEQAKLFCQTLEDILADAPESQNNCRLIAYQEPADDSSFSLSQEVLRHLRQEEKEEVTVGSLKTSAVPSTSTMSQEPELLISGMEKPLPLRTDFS
# protocol summary: HTRF STING competition binding (cGAMP displacement) assay, hSTING-AQ
# reported conditions: concentrations up to 100 μM
observable: binding to hSTING-AQ in displacement assay, in words

- compound: "CCOC(=O)Cn1c2ccccc2c(=O)c2cc(OC)c(C)c(C)c21"
  data value: "cannot bind to STING"
- compound: "COc1cc2c(=O)c3ccccc3[nH]c2c(C)c1C [Compound 9, 2-methoxy-3,4-dimethylacridin-9(10H)-one]"
  data value: "cannot bind to STING"
- compound: "COc1cc(C(=O)O)c2[nH]c3c(C)c(C)c(OC)cc3c(=O)c2c1"
  data value: "inactive"
- compound: "COc1cc2c(=O)c3cccc(C(=O)O)c3[nH]c2c(C)c1C"
  data value: "inactive"
